Measured values drawn from PubChem BioAssay (NCATS) for this set.

Tested on: Cellular tumor antigen p53 (Homo sapiens)
Measurement protocol: Primary qHTS for small molecule compounds that upregulate eGFP-tagged delta133p53alpha (in N-terminal) cells. (AID 2060322);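 note: cells pre-induced with doxycycline then dosed without doxycycline; series mostly up to about 56 µM; 0% = DMSO vehicle and 100% = reference activator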
Test conditions: NCI-H358 eGFP-delta133p53alpha fluorescence, 24 h; stronger effect = higher value
Records with an inconclusive call do not appear.
Assay readout: activation (%)

NCCNS(=O)(=O)c1cccc2c(Cl)cccc12 : -38
Nc1c(S(=O)(=O)O)cc(Nc2ccc(Nc3nc(Cl)nc(Nc4ccc(S(=O)(=O)O)cc4)n3)c(S(=O)(=O)O)c2)c2c1C(=O)c1ccccc1C2=O : -2.44
CN(C)CCOC1=Cc2ccccc2Sc2ccc(Cl)cc21 : 2.51
C/C(=C/CO)CC[C@@H]1[C@@](C)(O)CCC2C(C)(C)CCC[C@]21C (stereo partly drawn) : -7.14
CCOC(=O)N1c2ccc(C(F)(F)F)cc2C(N(Cc2cc(C(F)(F)F)cc(C(F)(F)F)c2)C(=O)OC)CC1CC (stereo not drawn) : -4.3
OC[C@H]1O[C@@H](Oc2ccc3c(c2)OC[C@H]2c4cc5c(cc4O[C@@H]32)OCO5)[C@H](O)[C@@H](O)[C@@H]1O : -13.7
CCCC(=O)C1(c2ccccc2)CCN(C(=O)[C@@H](Cc2ccc(OC)cc2)NC(=O)[C@@H](N)Cc2cncn2C)CC1 : 4.3
C#CC(C)(CC)OC(=O)c1ccccc1C(=O)O (stereo not drawn) : -11.9
OC[C@H]1O[C@@H](Oc2ccccc2)[C@H](O)[C@@H](O)[C@@H]1O : -0.893
Nc1ccc(S(=O)(=O)NCc2ccccc2)cc1 : -10
COc1cc(C(C)=O)ccc1O[C@@H]1O[C@H](CO)[C@@H](O)[C@H](O)[C@H]1O : -7.63
O=C(O[C@H]1[C@@H]2C=CO[C@@H](O[C@@H]3O[C@H](CO)[C@@H](O)[C@H](O)[C@H]3O)[C@@H]2[C@@]2(CO)O[C@@H]12)c1ccc(O)cc1 : 4.58
CS(=O)(=O)c1ccc(-c2nnc(/C=C/c3nnc(-c4ccc(C#N)cc4)o3)n2-c2ccccc2Cl)nc1 : -4.77
